test system: K562 (human acute myeloid leukemia); assay: MTT cytotoxic test, K562; type: cell-based; details: K562 cells
OUTCOME MEASURE: IC50

Query: # get_value(readout='IC50', item= `COc1ncnc2c1c1c(ccn1C)n2[C@@H]1O[C@H](CO)[C@@H](O)[C@H]1O` )
Response: 0.2 to 0.9 µM

Query: Same again, this time with `Cn1ccc2c1c1c(-c3cc4ccccc4o3)ncnc1n2[C@@H]1O[C@H](CO)[C@@H](O)[C@H]1O`
Response: 25 to 50 µM

Query: Same again, this time with `OC[C@H]1O[C@@H](n2c3ccoc3c3c(-c4cc5ccccc5o4)ncnc32)[C@H](O)[C@@H]1O`
Response: 25 to 50 µM

Query: Same again, this time with `CN(C)c1ncnc2c1c1occc1n2[C@@H]1O[C@H](CO)[C@@H](O)[C@H]1O`
Response: 25 to 50 µM

Query: Same again, this time with `COc1ncnc2c1c1occc1n2[C@@H]1O[C@H](CO)[C@@H](O)[C@H]1O`
Response: 0.2 to 0.9 µM

Query: Same again, this time with `Cn1ccc2c1c1c(-c3ccco3)ncnc1n2[C@@H]1O[C@H](CO)[C@@H](O)[C@H]1O`
Response: 25 to 50 µM

Query: Same again, this time with `Cc1ncnc2c1c1occc1n2[C@@H]1O[C@H](CO)[C@@H](O)[C@H]1O`
Response: 0.2 to 0.9 µM

Query: Same again, this time with `CN(C)c1ncnc2c1c1c(ccn1C)n2[C@@H]1O[C@H](CO)[C@@H](O)[C@H]1O`
Response: 25 to 50 µM

----------
system: A549 (human lung adenocarcinoma); assay: MTT cytotoxic test, A549; type: cell-based; conditions: A549 cells
Record form. Attribute: IC50. Fill in for each entry.

Query: # get_value(readout='IC50', item= `CSc1ncnc2c1c1occc1n2[C@@H]1O[C@H](CO)[C@@H](O)[C@H]1O` )
Response: 0.9 to 10 µM

Query: Same again, this time with `Cn1ccc2c1c1c(-c3ccoc3)ncnc1n2[C@@H]1O[C@H](CO)[C@@H](O)[C@H]1O`
Response: 25 to 50 µM

Query: Same again, this time with `OC[C@H]1O[C@@H](n2c3ccoc3c3c(-c4cc5ccccc5o4)ncnc32)[C@H](O)[C@@H]1O`
Response: 25 to 50 µM

Query: Same again, this time with `Cn1ccc2c1c1c(Cl)ncnc1n2[C@@H]1O[C@H](CO)[C@@H](O)[C@H]1O`
Response: 0.9 to 10 µM

Query: Same again, this time with `OC[C@H]1O[C@@H](n2c3ccoc3c3c(-c4ccco4)ncnc32)[C@H](O)[C@@H]1O`
Response: 25 to 50 µM

Query: Same again, this time with `CN(C)c1ncnc2c1c1occc1n2[C@@H]1O[C@H](CO)[C@@H](O)[C@H]1O`
Response: 25 to 50 µM

Query: Same again, this time with `CSc1ncnc2c1c1c(ccn1C)n2[C@@H]1O[C@H](CO)[C@@H](O)[C@H]1O`
Response: 25 to 50 µM

Query: Same again, this time with `OC[C@H]1O[C@@H](n2c3ccoc3c3c(-c4ccoc4)ncnc32)[C@H](O)[C@@H]1O`
Response: 25 to 50 µM

Query: Same again, this time with `COc1ncnc2c1c1c(ccn1C)n2[C@@H]1O[C@H](CO)[C@@H](O)[C@H]1O`
Response: 25 to 50 µM

Query: Same again, this time with `Cn1ccc2c1c1c(-c3cc4ccccc4o3)ncnc1n2[C@@H]1O[C@H](CO)[C@@H](O)[C@H]1O`
Response: 25 to 50 µM

Query: Same again, this time with `Cn1ccc2c1c1c(-c3ccco3)ncnc1n2[C@@H]1O[C@H](CO)[C@@H](O)[C@H]1O`
Response: 25 to 50 µM

Query: Same again, this time with `Cn1ccc2c1c1c(N)ncnc1n2[C@@H]1O[C@H](CO)[C@@H](O)[C@H]1O`
Response: 25 to 50 µM

Query: Same again, this time with `CN(C)c1ncnc2c1c1c(ccn1C)n2[C@@H]1O[C@H](CO)[C@@H](O)[C@H]1O`
Response: 25 to 50 µM

Query: Same again, this time with `Nc1ncnc2c1c1occc1n2[C@@H]1O[C@H](CO)[C@@H](O)[C@H]1O`
Response: 25 to 50 µM

Query: Same again, this time with `Cc1ncnc2c1c1occc1n2[C@@H]1O[C@H](CO)[C@@H](O)[C@H]1O`
Response: 0.9 to 10 µM

Query: Same again, this time with `COc1ncnc2c1c1occc1n2[C@@H]1O[C@H](CO)[C@@H](O)[C@H]1O`
Response: 0.9 to 10 µM

----------
system: K562 (human acute myeloid leukemia); assay: MTT cytotoxic test, K562; assay type: cell-based; conditions: K562 cells
OUTCOME MEASURE: IC50

Query: # get_value(readout='IC50', item= Cn1ccc2c1c1c(-c3ccoc3)ncnc1n2[C@@H]1O[C@H](CO)[C@@H](O)[C@H]1O [Compound 2f] )
Response: 900 to 10000 nM

Query: Same again, this time with Cc1ncnc2c1c1c(ccn1C)n2[C@@H]1O[C@H](CO)[C@@H](O)[C@H]1O [Compound 2a]
Response: 200 to 900 nM

Query: Same again, this time with OC[C@H]1O[C@@H](n2c3ccoc3c3c(-c4ccco4)ncnc32)[C@H](O)[C@@H]1O [Compound 1e]
Response: 900 to 10000 nM

Query: Same again, this time with Nc1ncnc2c1c1occc1n2[C@@H]1O[C@H](CO)[C@@H](O)[C@H]1O [Compound 1d]
Response: 900 to 10000 nM

Query: Same again, this time with OC[C@H]1O[C@@H](n2c3ccoc3c3c(-c4ccoc4)ncnc32)[C@H](O)[C@@H]1O [Compound 1f]
Response: 200 to 900 nM

----------
OUTCOME MEASURE: melting point

Query: # get_value(readout='melting point', item= CSc1ncnc2c1c1occc1n2[C@@H]1O[C@H](CO)[C@@H](O)[C@H]1O [Compound 1c] )
Response: 213 to 217 °C

Query: Same again, this time with Cn1ccc2c1c1c(-c3ccoc3)ncnc1n2[C@@H]1O[C@H](CO)[C@@H](O)[C@H]1O [Compound 2f]
Response: 202 to 207 °C

Query: Same again, this time with CN(C)c1ncnc2c1c1occc1n2[C@@H]1O[C@H](CO)[C@@H](O)[C@H]1O [Compound 1h]
Response: 212 to 255 °C (dec.)

Query: Same again, this time with Cn1ccc2c1c1c(N)ncnc1n2[C@@H]1O[C@H](CO)[C@@H](O)[C@H]1O [Compound 2d]
Response: 240 to 245 °C (dec.)

Query: Same again, this time with Cn1ccc2c1c1c(-c3ccco3)ncnc1n2[C@@H]1O[C@H](CO)[C@@H](O)[C@H]1O [Compound 2e]
Response: 245 to 253 °C

Query: Same again, this time with COc1ncnc2c1c1c(ccn1C)n2[C@@H]1O[C@H](CO)[C@@H](O)[C@H]1O [Compound 2b]
Response: 231 to 234 °C

Query: Same again, this time with Cn1ccc2c1c1c(Cl)ncnc1n2[C@@H]1O[C@H](CO)[C@@H](O)[C@H]1O [Compound 2i]
Response: 217 to 219 °C

Query: Same again, this time with Nc1ncnc2c1c1occc1n2[C@@H]1O[C@H](CO)[C@@H](O)[C@H]1O [Compound 1d]
Response: 246 to 253 °C

Query: Same again, this time with CSc1ncnc2c1c1c(ccn1C)n2[C@@H]1O[C@H](CO)[C@@H](O)[C@H]1O [Compound 2c]
Response: 212 to 214 °C

Query: Same again, this time with COc1ncnc2c1c1occc1n2[C@@H]1O[C@H](CO)[C@@H](O)[C@H]1O [Compound 1b]
Response: 216 to 219 °C

Query: Same again, this time with CN(C)c1ncnc2c1c1c(ccn1C)n2[C@@H]1O[C@H](CO)[C@@H](O)[C@H]1O [Compound 2h]
Response: 99 to 106 °C

Query: Same again, this time with Cn1ccc2c1c1c(-c3cc4ccccc4o3)ncnc1n2[C@@H]1O[C@H](CO)[C@@H](O)[C@H]1O [Compound 2g]
Response: 145 to 154 °C

Query: Same again, this time with Cc1ncnc2c1c1c(ccn1C)n2[C@@H]1O[C@H](CO)[C@@H](O)[C@H]1O [Compound 2a]
Response: 237 to 241 °C

----------
Test system: K562 (human acute myeloid leukemia)
Test: MTT cytotoxic test, K562
Type: cell-based
Conditions: K562 cells
From the text: MTT test (Nosková V. et al., Neoplasma 2002, 49, 418-425) was used for in vitro evaluation of antitumor activities of newly synthesized compounds on cell lines derived from normal tissues or tumors. […]
OUTCOME MEASURE: IC50

Query: # get_value(readout='IC50', item= Cn1ccc2c1c1c(N)ncnc1n2[C@@H]1O[C@H](CO)[C@@H](O)[C@H]1O [Compound 2d] )
Response: 25 to 50 µM

Query: Same again, this time with Cn1ccc2c1c1c(Cl)ncnc1n2[C@@H]1O[C@H](CO)[C@@H](O)[C@H]1O [Compound 2i]
Response: 0.01 to 0.2 µM

Query: Same again, this time with CSc1ncnc2c1c1c(ccn1C)n2[C@@H]1O[C@H](CO)[C@@H](O)[C@H]1O [Compound 2c]
Response: 0.2 to 0.9 µM

Query: Same again, this time with CSc1ncnc2c1c1occc1n2[C@@H]1O[C@H](CO)[C@@H](O)[C@H]1O [Compound 1c]
Response: 0.2 to 0.9 µM
